Test system: P388 leukemia ip, CD2F1 mice, survival T/C
assay name: NCI In Vivo Anticancer Drug Screen. Data for tumor model P388 Leukemia (intraperitoneal) in CD2F1 (CDF1) mice
run conditions: endpoint: median survival time; dose: 200.0 mg/kg/injection; schedule: Q01DX009 (ip); vehicle: Klucel (hydroxypropylcellulose) (HPC); higher = longer survival
Inconclusive results and toxic doses are left out.
property: T/C

molecule | property | result
CC(=O)Oc1cc(C)c(Cl)c2c(OC(C)=O)cc(C(C)=O)c(O)c12 | T/C | 90 % of control
NC(=O)c1[nH]c(N=Nc2ccc(Cl)cc2)nc1N | T/C | 89 % of control
O=C(c1ccccc1)C12CCC3CC(CC(C3)C1)C2 | T/C | 100 % of control
NCCSc1nc(-c2ccccc2)c(-c2ccccc2)o1 | T/C | 101 % of control
Cc1ccc(Cl)c(NC(=S)NCc2cccnc2)c1 | T/C | 108 % of control
CCOC(=O)/C=C/c1ccc(C(=O)OCC)[nH]1 | T/C | 97 % of control
O=P1(c2ccccc2)OCC2=C(c3ccccc3)CC2=C1c1ccccc1 (stereo not drawn) | T/C | 105 % of control
CSc1nc2ccc(CN3C(=O)c4ccccc4C3=O)cc2s1 | T/C | 91 % of control
CCOC(=O)C(=O)Nc1c(C(=O)OC)cc(C)c(C)c1C#N | T/C | 93 % of control
NC(=S)NNC(=O)c1ccc([N+](=O)[O-])cc1 | T/C | 96 % of control
C=CCN1C(=O)NC(=O)C(c2ccccc2)C1=O (stereo not drawn) | T/C | 92 % of control
COc1cccc(NC(=S)NCc2cccnc2)c1 | T/C | 111 % of control
Cc1ccc(NC(=S)SCc2ccc(Cl)c(Cl)c2)cc1C | T/C | 109 % of control
C/C(=N\O)C1(O)CCCCC1 | T/C | 105 % of control
COc1cc(/C=C/c2cc(OC)c(OC)c(OC)c2)oc(=O)c1 | T/C | 99 % of control
Cc1ccc(Nc2cc(C(=O)O)c(Nc3ccc(C)cc3)cc2C(=O)O)cc1 | T/C | 102 % of control
FC(F)(F)C(OCC1CO1)(c1ccccc1)C(F)(F)F (stereo not drawn) | T/C | 97 % of control
O=C(C[n+]1cccc2ccccc21)c1ccc(F)cc1 | T/C | 91 % of control
CC1(C)CC(=O)C=C(NCCCCCCCCNC2=CC(=O)CC(C)(C)C2)C1 | T/C | 100 % of control
Cc1cc(C)n(C(N)=NC(=O)c2ccc([N+](=O)[O-])cc2)n1 | T/C | 106 % of control
COc1ccc(NS(=O)(=O)c2ccc(C)cc2)c([N+](=O)[O-])c1 | T/C | 115 % of control
O=S(=O)(OCC(COS(=O)(=O)c1ccccc1)(OS(=O)(=O)c1ccccc1)OS(=O)(=O)c1ccccc1)c1ccccc1 | T/C | 104 % of control
CCOC(=O)c1ccc(NC(c2ccc(N(CCCl)CCCl)cc2)P(=O)(Oc2ccccc2)Oc2ccccc2)cc1 (stereo not drawn) | T/C | 95 % of control

---

System: P388 leukemia ip, CD2F1 mice, survival T/C
assay name: NCI In Vivo Anticancer Drug Screen. Data for tumor model P388 Leukemia (intraperitoneal) in CD2F1 (CDF1) mice
run conditions: endpoint: median survival time; dose: 200.0 mg/kg/injection; schedule: Q01DX005 (ip); vehicle: saline; higher = longer survival
Method: The antitumor activity of compounds was measured in mice bearing transplantable tumors. Survival or tumor size were measured and the results are expressed as the measurement made in the treated group (T) divided by the measurement made in the vehicle treated control group (C). The tumor model used in this assay is P388 Leukemia (intraperitoneal) in CD2F1 (CDF1) mice
Toxic doses and inconclusive results are not listed. Square brackets hold non-standard residues; d marks the D form. Peptide text beside a SMILES is read from it. Sar = CNCC(=O)O
Attribute: T/C

compound | T/C
CCCCCC[CH2][Sn]([Cl])([CH2]C)[O][Sn]([Cl])([CH2]C)[CH2]CCCCCC (stereo unspecified) | 98 % of control
c1ccc2c(c1)CC1OCN3CN(COC4Cc5ccccc5CC43)C1C2 (stereo unspecified) | 112 % of control
Cc1nonc1CCO | 103 % of control
CCCCn1[nH]nc(C(=O)OC)c1=O (tested in a mixture with another compound) | 94 % of control
CN(C)CC1CCCC(CN(C)C)C1O (stereo unspecified) | 93 % of control
COC(=O)NC1CC(C2CO2)OC1=O (stereo unspecified) | 109 % of control
CCCNCc1cccc2ccnc(C)c12 | 101 % of control
CN(CC(=O)O)C(=O)CNC(=O)CN (H-Gly-Gly-[Sar]-OH) | 91 % of control
CC1C(c2ccccc2)OCN1C (stereo unspecified) | 116 % of control
CCP(=O)(CC)CC | 99 % of control
CC(C)N(CCO)CCO | 100 % of control
C1CN(C[C@H]2CO[C@H](CN3CCOCC3)CO2)CCO1 | 110 % of control
O=C1CN(N2CCOCC2)CC(=O)N2CCCCN12 | 109 % of control
CC(C)NCCCNC(=O)C1COc2ccccc2O1 (stereo unspecified) | 90 % of control
COC(=O)C(=C\c1nc2ccc([N+](=O)[O-])cc2s1)/C(C(=O)OC)=C1\CCCN1C | 97 % of control
CC(C)C(=O)C(O)C(C)C (stereo unspecified) | 100 % of control
COC1NC(=O)N(C)N(C)C1=O (stereo unspecified) | 100 % of control
OC(CO/N=C1\CCc2ccccc21)CN1CCOCC1 (stereo unspecified) | 104 % of control
CCCCCC(=O)NCC(=O)OC | 100 % of control
CC(NC(=O)CN(C)C(=O)OCc1ccccc1)C(=O)O (stereo unspecified) | 100 % of control
CC(C)(C)N1CCOCN2CCCCC2CCN(C(C)(C)C)CCOCN2CCCCC2CC1 (stereo unspecified) | 100 % of control

The reported measurements were obtained from PubChem BioAssay AID330.
